hey, just use Satisfied if measured logP is less than 4, otherwise Not satisfied

Solved entries:
• CC1CCC2CC(=O)N(CCCc3ccccc3)C3OC4(C)CCC1C23OO4 (stereo not given) = Not satisfied
• C[C@@H]1CC[C@H]2[C@@H](C)C(=O)O[C@@H]3O[C@@]4(C)CC[C@@H]1[C@]32OO4 (relative stereo) = Satisfied
• CC1CCC2CC(=O)N(Cc3ccc(Cl)cc3)C3OC4(C)CCC1C23OO4 (stereo not given) = Not satisfied
• CCCCCN1C(=O)CC2CCC(C)C3CCC4(C)OOC23C1O4 (stereo not given) = Not satisfied
• C[C@@H]1CC[C@H]2[C@@H](C)CO[C@@H]3O[C@]4(C)CC[C@@H]1[C@]32OO4 = Satisfied

Request: API: query returns whether the compound falls strictly under 4 in logP. Query: CCCN1C(=O)CC2CCC(C)C3CCC4(C)OOC23C1O4 (stereo not given)
Response: Satisfied

Request: Another compound to check: CC1CCC2CC(=O)N(CC(=O)O)C3OC4(C)CCC1C23OO4 (stereo not given)
Response: Satisfied

Request: Another compound: CC(C)CN1C(=O)CC2CCC(C)C3CCC4(C)OOC23C1O4 (stereo not given)
Response: Satisfied

Request: Ok, now CC(C)CCN1C(=O)CC2CCC(C)C3CCC4(C)OOC23C1O4 (stereo not given)
Response: Not satisfied

Reference source: the SangsterLogP compilation
